These measurements were taken from the supplement of paper PMC6555819.

- System: PPARg:RXRa IVT, anti-PPARg (NR concentration 270 nM, RXRa partner concentration 90 nM)
- assayNotes: PBM binding z-score (relative to random genomic background probes); higher = stronger binding; sequences stand for … in GC…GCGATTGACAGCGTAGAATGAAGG
Note to self: values exactly at 2 are Criterion met. So PBM binding z-score at or above 2 is Criterion met, below is Criterion not met.

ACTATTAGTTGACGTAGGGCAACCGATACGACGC : Criterion not met

Problem: Dear colleague, could you confirm whether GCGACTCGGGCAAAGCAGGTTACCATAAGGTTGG has PBM binding z-score at or above 2?
Result: Criterion not met

Problem: Dear colleague, could you confirm whether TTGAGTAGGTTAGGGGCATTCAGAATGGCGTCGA has PBM binding z-score at or above 2?
Result: Criterion met
